# experimental.system: AcPAO(128-144)OH (Pseudomonas aeruginosa, UniProt P04739)
# Type: binding
# condition.details: competition ELISA on PAK pili; read-out: I50 for PAO
pIC50: −log10 of the molar value.

{"residues": "KCTSDQDPQFIPKGCSK [E135P]", "pIC50": 2.32}
